This collection of values is drawn from PubChem BioAssay (NCI).

test system: OVCAR-3 ovarian; test: NCI tumour cell line growth inhibition, 48 h; in the data active = GI50 below about 0.43 µM; inactive = the rest
Respond with a class label; see active, inactive

Exam item: Short answer needed: outcome of this test for Oc1c(Cl)cc(Cl)c2cccnc12 ?
Marked response: inactive

Exam item: Short answer needed: outcome of this test for COc1ccc2c(c1)C(=O)c1c-2n(CCCN)c(=O)c2cc([N+](=O)[O-])ccc12 ?
Marked response: inactive

Exam item: Short answer needed: outcome of this test for COc1cccc(CC(C)=C(c2ccc(OCCCN(C)C)cc2)c2ccc(OCCCN(C)C)cc2)c1 ?
Marked response: inactive

Exam item: Short answer needed: outcome of this test for COc1ccc2c(c1)C(=O)c1c-2c(N2CCNCC2)nc2ccccc12 ?
Marked response: inactive

Exam item: Short answer needed: outcome of this test for CCN(CC)CCCC(C)Nc1c(-c2ccccc2)cnc2cc(Cl)ccc12 (stereo not drawn) ?
Marked response: inactive

Exam item: Short answer needed: outcome of this test for C=C1CC[C@@H]2[C@](C)(COC(C)=O)[C@H](OC(C)=O)CC[C@@]2(C)[C@@H]1CC(Nc1ccc(S(=O)(=O)Nc2nccs2)cc1)C1=CCOC1=O (stereo partly drawn) ?
Marked response: inactive

Exam item: Short answer needed: outcome of this test for O=C(Nc1cnc(C(F)(F)F)cn1)c1cc(Cl)ccc1O ?
Marked response: active

Exam item: Short answer needed: outcome of this test for O=C(Nc1ccccc1Cl)c1cccc(NC2=C(Cl)C(=O)N(Cc3ccccc3)C2=O)c1 ?
Marked response: inactive

Exam item: Short answer needed: outcome of this test for CCOC1OC(=O)[C@H]2[C@@H]1[C@@H]1CC[C@H]2O1 (stereo partly drawn) ?
Marked response: inactive

Exam item: Short answer needed: outcome of this test for O=c1c(O)cccn1CCCN(CCCn1cccc(O)c1=O)CCn1cccc(O)c1=O ?
Marked response: inactive

Exam item: Short answer needed: outcome of this test for Cc1c2ccncc2c(C)c2c1c1cc(CO)ccc1n2C ?
Marked response: inactive

Exam item: Short answer needed: outcome of this test for COc1ccc(-c2ccc(/C=N/n3c(COc4ccccc4Cl)n[nH]c3=S)o2)c([N+](=O)[O-])c1 ?
Marked response: inactive

Exam item: Short answer needed: outcome of this test for O=C(NN1C(=O)CSC1c1ccc(F)cc1)C(O)c1ccccc1 (stereo not drawn) ?
Marked response: inactive

Exam item: Short answer needed: outcome of this test for O=c1cccc(C#CC#CCCCO)o1 ?
Marked response: inactive

Exam item: Short answer needed: outcome of this test for Nc1n[nH]c(N)c1N=Nc1ccc(O)cc1 ?
Marked response: inactive

Exam item: Short answer needed: outcome of this test for COc1ccc(Oc2ccccc2NC(=O)CNC(=O)c2cccc3ccccc23)cc1 ?
Marked response: active

Exam item: Short answer needed: outcome of this test for NS(=O)(=O)c1cccc(-c2ccc3c(NC(=O)C4CC4)n[nH]c3c2)c1 ?
Marked response: inactive

Exam item: Short answer needed: outcome of this test for CC(=O)O.CC(=O)O.CC(=O)O.CC(=O)O.[Rh].[Rh] ?
Marked response: inactive

====

tested on: SF-539 CNS; assay: NCI tumour cell line growth inhibition, 48 h; in the data active = GI50 below about 0.43 µM; inactive = the rest
Respond with a class label; see yes = active, no = inactive

Exam item: Short answer needed: outcome of this test for COc1cccc2c1[C@H]1CO[C@H]3C4C[C@H](C(=O)O)C([C@@H](C2)N13)N4C (some centres not stated) ?
Marked response: no

Exam item: Short answer needed: outcome of this test for Brc1cccc(-c2cc(-c3ccc4nccnc4c3)[nH]n2)c1 ?
Marked response: no

Exam item: Short answer needed: outcome of this test for N/C(=N\c1nc2ccccc2s1)NC(=NC1CCCCC1)NC1CCCCC1 ?
Marked response: no

Exam item: Short answer needed: outcome of this test for CC1=C(C(=O)Nc2ccc(F)c(Cl)c2)C(c2ccccc2O)NC(=O)N1 (configuration not stated) ?
Marked response: no

Exam item: Short answer needed: outcome of this test for CC/C=C\C/C=C/C=C1/C(=O)C=C[C@@H]1C/C=C\CCCC(=O)OC ?
Marked response: no

Exam item: Short answer needed: outcome of this test for CN(c1ccc(C#N)c(Cl)c1)C1CCC(NC(=O)c2ccc(N3CCN(C4CN(c5ccc6c(c5)C(=O)N(C5CCC(=O)NC5=O)C6=O)C4)CC3)cc2)CC1 (configuration not stated) ?
Marked response: no

Exam item: Short answer needed: outcome of this test for O=C(Nc1cnc(C(F)(F)F)cn1)c1cc(Cl)ccc1O ?
Marked response: yes
